- method.summary: PET hydrolysis product formed (TPA+MHET+BHET, UV-Vis) per mg enzyme (mmol/mg enzyme); higher = more PET depolymerisation activity; extreme values may be limits of the assay
- experimental.conditions: PET substrate: aFilm; 60 °C; pH 8.5; 2 h
recorded.endpoint: PET hydrolysis product formed

query.sequence	recorded.endpoint	recorded.value
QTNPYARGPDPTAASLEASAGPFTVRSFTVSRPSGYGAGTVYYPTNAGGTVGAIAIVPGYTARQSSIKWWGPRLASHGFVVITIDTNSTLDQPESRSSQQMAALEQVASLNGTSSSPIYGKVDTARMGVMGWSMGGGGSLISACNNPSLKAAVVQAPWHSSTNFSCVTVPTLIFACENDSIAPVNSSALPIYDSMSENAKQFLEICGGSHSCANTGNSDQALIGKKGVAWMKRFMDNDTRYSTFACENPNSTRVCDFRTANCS [Z1-PETase]	PET hydrolysis product formed	0.0362
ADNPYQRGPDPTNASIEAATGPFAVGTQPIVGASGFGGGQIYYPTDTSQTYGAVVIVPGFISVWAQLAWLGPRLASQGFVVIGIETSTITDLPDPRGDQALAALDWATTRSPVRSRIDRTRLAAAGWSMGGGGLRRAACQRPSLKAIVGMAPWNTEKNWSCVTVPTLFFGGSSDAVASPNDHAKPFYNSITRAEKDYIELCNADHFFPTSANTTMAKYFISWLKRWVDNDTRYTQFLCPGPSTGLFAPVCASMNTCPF [CaPETaseM9]	PET hydrolysis product formed	0.0152
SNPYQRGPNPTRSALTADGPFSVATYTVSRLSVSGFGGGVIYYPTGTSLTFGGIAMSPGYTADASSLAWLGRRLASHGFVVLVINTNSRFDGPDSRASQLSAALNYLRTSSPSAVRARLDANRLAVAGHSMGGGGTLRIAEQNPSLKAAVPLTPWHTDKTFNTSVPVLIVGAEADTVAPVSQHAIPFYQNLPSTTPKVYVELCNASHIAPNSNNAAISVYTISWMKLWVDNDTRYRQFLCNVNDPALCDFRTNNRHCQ [LCC-ICCG]	PET hydrolysis product formed	0.0461
